All values here come from patent US10736974B2.

biological target: UniProt Q04609; assay: NAALADase assay: PSMA inhibitory activity, fluorescence-based Amplex Red Glutamic Acid assay, lysates of LNCaP cell extracts; format: biochemical; details: Table 3; Cheng-Prusoff conversion; read-out: Ki
Sequence (Q04609 whole entry): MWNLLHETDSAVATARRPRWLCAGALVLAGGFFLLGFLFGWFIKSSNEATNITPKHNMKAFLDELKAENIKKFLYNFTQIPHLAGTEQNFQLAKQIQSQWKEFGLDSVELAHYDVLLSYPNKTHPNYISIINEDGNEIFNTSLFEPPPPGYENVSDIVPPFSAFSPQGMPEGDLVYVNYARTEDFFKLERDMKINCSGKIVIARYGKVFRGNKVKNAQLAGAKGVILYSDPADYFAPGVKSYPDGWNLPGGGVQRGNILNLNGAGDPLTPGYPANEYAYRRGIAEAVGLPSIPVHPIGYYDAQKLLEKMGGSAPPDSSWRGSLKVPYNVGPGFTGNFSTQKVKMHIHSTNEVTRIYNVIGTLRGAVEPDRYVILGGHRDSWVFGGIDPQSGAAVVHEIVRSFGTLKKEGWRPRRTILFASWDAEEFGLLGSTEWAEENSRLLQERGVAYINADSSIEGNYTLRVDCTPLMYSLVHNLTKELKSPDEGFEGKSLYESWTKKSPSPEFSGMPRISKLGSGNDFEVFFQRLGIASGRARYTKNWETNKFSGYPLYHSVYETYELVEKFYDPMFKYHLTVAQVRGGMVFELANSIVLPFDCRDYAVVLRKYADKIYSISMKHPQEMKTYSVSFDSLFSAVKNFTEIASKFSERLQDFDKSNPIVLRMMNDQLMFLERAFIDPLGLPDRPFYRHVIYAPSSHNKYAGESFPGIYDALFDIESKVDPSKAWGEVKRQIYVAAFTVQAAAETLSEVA
READOUT_LABEL: Ki (nM)
Your answer is read as nM, so omit the unit and give the number.

Solved cases (5 shown):
O=C(O)CC[C@H](NC(=O)O[C@@H](CCCCNC(=O)c1ccc(-c2ccccc2)cc1F)C(=O)O)C(=O)O :: 13
O=C(O)CC[C@H](NC(=O)O[C@@H](CCCCNC(=O)c1ccc(SCc2ccc(F)cc2)cc1)C(=O)O)C(=O)O :: 9.3
CNC(=O)c1ccc(C(=O)NCCCC[C@H](OC(=O)N[C@@H](CCC(=O)O)C(=O)O)C(=O)O)cc1 :: 270
O=C(O)CC[C@H](NC(=O)O[C@@H](CCCCNC(=O)c1ccc(-c2ccc(OCCF)cc2)cc1)C(=O)O)C(=O)O :: 22
O=C(O)CC[C@H](NC(=O)NC[C@H](NC(=O)c1ccc(F)cc1)C(=O)O)C(=O)O :: 9.7

Lab note: O=C(O)CC[C@H](NC(=O)O[C@@H](CCCCNC(=O)c1ccc2ccccc2c1)C(=O)O)C(=O)O gave Ki of 12

In plain terms, O=C(O)CC[C@H](NC(=O)O[C@@H](CCCCNC(=O)c1ccc(F)cc1)C(=O)O)C(=O)O has a documented Ki of 42

For reference, reported Ki for O=C(O)CC[C@H](NC(=O)O[C@@H](CCCCNC(=O)c1ccc(I)cc1F)C(=O)O)C(=O)O stands at 0.32

Ki recorded for this molecule, O=C(O)CC[C@H](NC(=O)NC[C@@H](NC(=O)CCCNC(=O)c1ccc(-c2ccccc2)cc1F)C(=O)O)C(=O)O , is 0.4

Briefly, Ki measured for COc1ccc(-c2ccc(C(=O)NCCCC[C@H](OC(=O)N[C@@H](CCC(=O)O)C(=O)O)C(=O)O)cc2)cc1 : 6

Form: molecule = O=C(O)CC[C@H](NC(=O)O[C@@H](CCCCNC(=O)c1ccc(I)cc1OCCCCNC(=O)c1ccc(I)cc1)C(=O)O)C(=O)O ; Ki = 770

Summary for this molecule, COc1ccc(C(=O)NCCCC[C@H](OC(=O)N[C@@H](CCC(=O)O)C(=O)O)C(=O)O)cc1 : Ki is 21

In plain terms, CSc1ccc(C(=O)NCCCC(=O)N[C@H](CNC(=O)N[C@@H](CCC(=O)O)C(=O)O)C(=O)O)cc1 has a documented Ki of 0.26
